Each entry below carries its reported MBEC C. albicans.
# System: Candida albicans ATCC 10231
# Assay type: cell-based
# Assay conditions: ATCC 10231, 24 h
Where a SMILES comes first, the peptide text is derived from it. Bridges are numbered along the chain shown (N, C = ends). The star is where a group is joined. Palmitoyl = CCCCCCCCCCCCCCCC(=O)*
Metric name: MBEC C. albicans (µg/mL)

Molecule | Display unit | Value
CCCCCCCCCCCCCCCC(=O)N[C@@H](CCCCN)C(=O)N[C@@H](CCCCN)C(=O)N[C@@H](CCCCN)C(=O)N[C@@H](CCCCN)C(N)=O [L2, C16-KKKK-NH2] (Palmitoyl-KKKK-NH2) | µg/mL | 256
CCCCCCCCCCCCCCCC(=O)N[C@H]1CSSC[C@@H](C(N)=O)NC(=O)[C@H](CCCCN)NC(=O)[C@H](CCCCN)NC(=O)[C@H](CCCNC(=N)N)NC(=O)[C@H](CCCNC(=N)N)NC1=O [C7, C16-CRRKKC-NH2] (Palmitoyl-CRRKKC-NH2; disulfide 1-6) | µg/mL | 64
CCCCCCCCCCCCCCCC(=O)N[C@@H](CCCNC(=N)N)C(=O)N[C@@H](CCCNC(=N)N)C(=O)N[C@@H](CCCCN)C(=O)N[C@@H](CCCCN)C(N)=O [L7, C16-RRKK-NH2] (Palmitoyl-RRKK-NH2) | µg/mL | 64
CCCCCCCCCCCCCCCC(=O)N[C@@H](CCCCN)C(=O)N[C@@H](CCCCN)C(=O)N[C@@H](CCCNC(=N)N)C(=O)N[C@@H](CCCCN)C(N)=O [L5, C16-KKRK-NH2] (Palmitoyl-KKRK-NH2) | µg/mL | 256
